System: 772245-204-R-J1-PDC complex spheroid growth;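 note: compound exposure lasted seven days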
Assay: Anticancer human tumor 772245-204-R-J1-PDC patient-derived rhabdomyosarcoma cell line growth inhibition [Asc]
Conditions: curve of first compound; second compound 0.316 µM
From the text: Multicellular complex tumor spheroid response to apoptosis pathway targeting inhibitors Alrizomadlin, Pelcitoclax, and Dasminapant in combination with a variety of drugs and investigational agents in selected tumor cell lines […] Compounds. […] If the clinical Cmax for an agent had not been determined, the highest concentration tested was 10 microM. […]
pIC50: −log10 of the molar value.
pIC50 reference
readout-name: pIC50

molecule	readout-name	relation-qualifier	val
C#Cc1c(F)ccc2cc(O)cc(-c3ncc4c(N5CC6CCC(C5)N6)nc(OCC56CCCN5CC(F)C6)nc4c3F)c12 (configuration not stated) + CNC(C)C(=O)NC1CN(S(=O)(=O)c2cccc(S(=O)(=O)N3CCC4CCC(C(=O)NC(c5ccccc5)c5ccccc5)N4C(=O)C(NC(=O)C(C)NC)C3)c2)CCC2CCC(C(=O)NC(c3ccccc3)c3ccccc3)N2C1=O	pIC50	<	5.00
C=C(F)C(=O)N1CCN(c2nc(OCC3CCCN3C)nc3c2CCN(c2cccc4cccc(Cl)c24)C3)CC1CC#N (configuration not stated) + Cc1c(S(C)(=O)=O)c(-c2cc(F)cc(N3CCN(c4ccc(NS(=O)(=O)c5ccc(NC(CCN6CCC(C(=O)OCCCP(=O)(O)O)CC6)CSc6ccccc6)c(S(=O)(=O)C(F)(F)F)c5)cc4)CC3)c2)c(-c2ccc(Cl)cc2)n1C(C)C	pIC50	=	6.11
C=CC(=O)N1CCN(c2nc(=O)n(-c3c(C)ccnc3C(C)C)c3nc(-c4c(O)cccc4F)c(F)cc23)C(C)C1 (configuration not stated) + CNC(C)C(=O)NC1CN(S(=O)(=O)c2cccc(S(=O)(=O)N3CCC4CCC(C(=O)NC(c5ccccc5)c5ccccc5)N4C(=O)C(NC(=O)C(C)NC)C3)c2)CCC2CCC(C(=O)NC(c3ccccc3)c3ccccc3)N2C1=O	pIC50	<	5.00
Cn1ncnc1[C@H]1c2n[nH]c(=O)c3cc(F)cc(c23)N[C@@H]1c1ccc(F)cc1 + CNC(C)C(=O)NC1CN(S(=O)(=O)c2cccc(S(=O)(=O)N3CCC4CCC(C(=O)NC(c5ccccc5)c5ccccc5)N4C(=O)C(NC(=O)C(C)NC)C3)c2)CCC2CCC(C(=O)NC(c3ccccc3)c3ccccc3)N2C1=O	pIC50	<	7.00
O=C(c1ccc(F)c(F)c1Nc1ccc(I)cc1F)N1CC(O)([C@@H]2CCCCN2)C1 + CNC(C)C(=O)NC1CN(S(=O)(=O)c2cccc(S(=O)(=O)N3CCC4CCC(C(=O)NC(c5ccccc5)c5ccccc5)N4C(=O)C(NC(=O)C(C)NC)C3)c2)CCC2CCC(C(=O)NC(c3ccccc3)c3ccccc3)N2C1=O	pIC50	<	6.00
Cc1nc(N2CCC3(CC2)COC(C)C3N)c(CO)nc1Sc1ccnc(N)c1Cl (configuration not stated) + Cc1c(S(C)(=O)=O)c(-c2cc(F)cc(N3CCN(c4ccc(NS(=O)(=O)c5ccc(NC(CCN6CCC(C(=O)OCCCP(=O)(O)O)CC6)CSc6ccccc6)c(S(=O)(=O)C(F)(F)F)c5)cc4)CC3)c2)c(-c2ccc(Cl)cc2)n1C(C)C	pIC50	=	6.19
COc1c(OCCCN2CCOCC2)ccc2c3n(c(=NC(=O)c4cnc(N)nc4)nc12)CCN3 + Cc1c(S(C)(=O)=O)c(-c2cc(F)cc(N3CCN(c4ccc(NS(=O)(=O)c5ccc(NC(CCN6CCC(C(=O)OCCCP(=O)(O)O)CC6)CSc6ccccc6)c(S(=O)(=O)C(F)(F)F)c5)cc4)CC3)c2)c(-c2ccc(Cl)cc2)n1C(C)C	pIC50	=	7.31
